Catalogue of pIC50 values
protocol: Inhibition of JAK2 V617F mutant in human SET-2 cells assessed as reduction in cell viability incubated for 72 hrs by MTT assay
pIC50: −log10 of the molar value.

line_notation: Cc1cnc(Nc2ccc3c(c2)CCN(CCCCO)C3)nc1-c1cnn(C(C)C)c1
pIC50: 6.57
//
line_notation: Cc1cnc(Nc2ccc3c(c2)CCN(C/C=C/C(=O)NCCN2CCCCC2)C3)nc1-c1cnn(C(C)C)c1
pIC50: 6.26
//
line_notation: Cc1cnc(Nc2ccc3c(c2)CN(CC#N)CC3)nc1-c1cnn(C(C)C)c1
pIC50: 7.02
//
line_notation: CC(C)n1cc(-c2nc(Nc3ccc4c(c3)CCN(CCCO)C4)ncc2F)cn1
pIC50: 6.51
//
line_notation: CC(C)n1cc(-c2nc(Nc3ccc4c(c3)CCN(CCCCCO)C4)ncc2F)cn1
pIC50: 6.31
//
line_notation: Cc1cnc(Nc2ccc3c(c2)CCN(CCCO)C3)nc1-c1cnn(C(C)C)c1
pIC50: 6.40
//
line_notation: CCNC(=O)N1CCc2cc(Nc3ncc(C)c(-c4cnn(C(C)C)c4)n3)ccc2C1
pIC50: 5.63
//
line_notation: Cc1cnc(Nc2ccc3c(c2)CN(C(=O)/C=C/C(=O)c2ccccc2)CC3)nc1-c1cnn(C(C)C)c1
pIC50: 7.37
//
line_notation: C=CCN1CCc2cc(Nc3ncc(C)c(-c4cnn(C(C)C)c4)n3)ccc2C1
pIC50: 6.54
//
line_notation: Cc1cnc(Nc2ccc3c(c2)CCN(C/C=C/C(=O)O)C3)nc1-c1cnn(C(C)C)c1
pIC50: 6.48
//
line_notation: Cc1cnc(Nc2ccc3c(c2)CN(C(=O)/C=C/CN(C)C)CC3)nc1-c1cnn(C(C)C)c1
pIC50: 7.82
//
line_notation: Cc1ccc(C(=O)/C=C/C(=O)N2CCc3cc(Nc4ncc(C)c(-c5cnn(C(C)C)c5)n4)ccc3C2)cc1
pIC50: 7.82
//
line_notation: Cc1cnc(Nc2ccc3c(c2)CCN(C(=O)Nc2cccc(Cl)c2)C3)nc1-c1cnn(C(C)C)c1
pIC50: 5.46
//
line_notation: Cc1cnc(Nc2ccc3c(n2)CCN(CCCO)C3)nc1-c1cnn(C(C)C)c1
pIC50: 5.66
//
line_notation: CCOCCN1CCc2cc(Nc3ncc(C)c(-c4cnn(C(C)C)c4)n3)ccc2C1
pIC50: 6.47
//
line_notation: CCCNC(=O)N1CCc2cc(Nc3ncc(C)c(-c4cnn(C(C)C)c4)n3)ccc2C1
pIC50: 5.75

###

protocol: Inhibition of FLT3 ITD mutant in human MOLM13 cells assessed as reduction in cell viability incubated for 72 hrs by MTT assay
quantity_kind: IC50 (µM)

line_notation: Cc1ccc(C(=O)/C=C/C(=O)N2CCc3ccc(Nc4ncc(C)c(-c5cnn(C(C)C)c5)n4)cc3C2)cc1
qualifying_sign: =
quantitative_readout: 0.629
//
line_notation: Cc1cnc(Nc2ccc3c(c2)CN(C(=O)/C=C/CN(C)C)CC3)nc1-c1cnn(C(C)C)c1
qualifying_sign: =
quantitative_readout: 0.456
//
line_notation: CC(C)n1cc(-c2nc(Nc3ccc4c(c3)CCN(CCCCO)C4)ncc2F)cn1
qualifying_sign: =
quantitative_readout: 0.455
//
line_notation: CC(C)n1cc(-c2nc(Nc3ccc4c(c3)CCN(CCCO)C4)ncc2F)cn1
qualifying_sign: =
quantitative_readout: 0.453
//
line_notation: C=CCN1CCc2cc(Nc3ncc(C)c(-c4cnn(C(C)C)c4)n3)ccc2C1
qualifying_sign: =
quantitative_readout: 0.868
//
line_notation: Cc1cnc(Nc2ccc3c(c2)CCN(CCC#N)C3)nc1-c1cnn(C(C)C)c1
qualifying_sign: =
quantitative_readout: 0.356
//
line_notation: Cc1cnc(Nc2ccc3c(c2)CCN(CCO)C3)nc1-c1cnn(C(C)C)c1
qualifying_sign: =
quantitative_readout: 1.26
//
line_notation: Cc1cnc(Nc2cc3c(cc2F)CN(CCO)CC3)nc1-c1cnn(C(C)C)c1
qualifying_sign: >
quantitative_readout: 5
//
line_notation: CC(C)n1cc(-c2nc(Nc3ccc4c(c3)CCN(CCO)C4)ncc2F)cn1
qualifying_sign: =
quantitative_readout: 0.547

###

protocol: Inhibition of JAK2 V617F mutant in human SET-2 cells assessed as reduction in cell viability incubated for 72 hrs by MTT assay
Returns: string. Value is y if measured IC50 is below 0.6 µM, and n if it is greater than or equal to it.

line_notation: Cc1cnc(Nc2ccc3c(c2)CCN3CCO)nc1-c1cnn(C(C)C)c1
class_assignment: n
//
line_notation: Cc1cnc(Nc2ccc3c(c2)CCN(CCO)C3)nc1-c1cnn(C(C)C)c1
class_assignment: y
//
line_notation: Cc1ccc(C(=O)CCC(=O)N2CCc3cc(Nc4ncc(C)c(-c5cnn(C(C)C)c5)n4)ccc3C2)cc1
class_assignment: n
//
line_notation: COC(=O)CCCN1CCc2cc(Nc3ncc(C)c(-c4cnn(C(C)C)c4)n3)ccc2C1
class_assignment: n
//
line_notation: CC(C)n1cc(-c2nc(Nc3ccc4c(c3)CCN(CCO)C4)ncc2F)cn1
class_assignment: n
//
line_notation: Cc1cnc(Nc2ccc3c(c2)CCN(CC#N)C3)nc1-c1cnn(C(C)C)c1
class_assignment: y
//
line_notation: Cc1cnc(Nc2ccc3c(c2)CCN(CCC#N)C3)nc1-c1cnn(C(C)C)c1
class_assignment: y
//
line_notation: Cc1cnc(Nc2ccc3c(c2)CCN(C(=O)/C=C/CN(C)C)C3)nc1-c1cnn(C(C)C)c1
class_assignment: y
//
line_notation: Cc1cnc(Nc2cc3c(cc2F)CN(CCO)CC3)nc1-c1cnn(C(C)C)c1
class_assignment: n
//
line_notation: CC(C)n1cc(-c2nc(Nc3ccc4c(c3)CCN(C(=O)CO)C4)ncc2F)cn1
class_assignment: y
//
line_notation: COC(=O)/C=C/CN1CCc2ccc(Nc3ncc(C)c(-c4cnn(C(C)C)c4)n3)cc2C1
class_assignment: y
//
line_notation: Cc1cnc(Nc2ccc3c(c2)CCN(C(=O)CCCN(C)C)C3)nc1-c1cnn(C(C)C)c1
class_assignment: n
//
line_notation: COC(=O)/C=C/CN1CCc2cc(Nc3ncc(C)c(-c4cnn(C(C)C)c4)n3)ccc2C1
class_assignment: y
//
line_notation: CCN(CC)C(=O)/C=C/CN1CCc2cc(Nc3ncc(C)c(-c4cnn(C(C)C)c4)n3)ccc2C1
class_assignment: y
//
line_notation: CC#CCN1CCc2cc(Nc3ncc(C)c(-c4cnn(C(C)C)c4)n3)ccc2C1
class_assignment: n
//
line_notation: Cc1cnc(Nc2ccc3c(c2)CCN(C(=O)/C=C/C(=O)c2ccccc2)C3)nc1-c1cnn(C(C)C)c1
class_assignment: y

###

protocol: Inhibition of FLT3 ITD mutant in human MOLM13 cells assessed as reduction in cell viability incubated for 72 hrs by MTT assay

line_notation: Cc1cnc(Nc2ccc3c(c2)CN(C(=O)/C=C/C(=O)c2ccccc2)CC3)nc1-c1cnn(C(C)C)c1
IC50: 535 nM
//
line_notation: Cc1cnc(Nc2ccc3c(c2)CCN(C(=O)Nc2cccc(Cl)c2)C3)nc1-c1cnn(C(C)C)c1
IC50: 2070 nM
//
line_notation: CCN(CC)C(=O)/C=C/CN1CCc2cc(Nc3ncc(C)c(-c4cnn(C(C)C)c4)n3)ccc2C1
IC50: 656 nM
//
line_notation: CC(C)n1cc(-c2nc(Nc3ccc4c(c3)CCN(C(=O)CO)C4)ncc2F)cn1
IC50: 453 nM
//
line_notation: COC(=O)/C=C/CN1CCc2ccc(Nc3ncc(C)c(-c4cnn(C(C)C)c4)n3)cc2C1
IC50: 430 nM
//
line_notation: Cc1cnc(Nc2ccc3c(c2)CCN(C(=O)/C=C/C(=O)c2ccccc2)C3)nc1-c1cnn(C(C)C)c1
IC50: 458 nM
//
line_notation: Cc1cnc(Nc2ccc3c(c2)CCN(CCCCO)C3)nc1-c1cnn(C(C)C)c1
IC50: 879 nM
//
line_notation: Cc1cnc(Nc2ccc3c(c2)CN(CC#N)CC3)nc1-c1cnn(C(C)C)c1
IC50: 425 nM
//
line_notation: Cc1cnc(Nc2ccc3c(c2)CCN(C/C=C/C(=O)NCCN2CCCCC2)C3)nc1-c1cnn(C(C)C)c1
IC50: 2090 nM

###

protocol: Inhibition of JAK2 V617F mutant in mouse BaF3 cells assessed as reduction in cell viability incubated for 72 hrs by MTT assay
Catalogue of IC50 values
quantity_kind: IC50 (nM)

line_notation: Cc1cnc(Nc2ccc3c(c2)CCN(CCCCO)C3)nc1-c1cnn(C(C)C)c1
quantity_kind: IC50
quantitative_readout: 234
//
line_notation: Cc1cnc(Nc2ccc3c(c2)CCN(C(=O)Nc2cccc(Cl)c2)C3)nc1-c1cnn(C(C)C)c1
quantity_kind: IC50
quantitative_readout: 2180
//
line_notation: Cc1cnc(Nc2ccc3c(c2)CN(CC#N)CC3)nc1-c1cnn(C(C)C)c1
quantity_kind: IC50
quantitative_readout: 76
//
line_notation: Cc1cnc(Nc2ccc3c(c2)CCN(CCO)C3)nc1-c1cnn(C(C)C)c1
quantity_kind: IC50
quantitative_readout: 431
//
line_notation: Cc1cnc(Nc2ccc3c(n2)CCN(CCCO)C3)nc1-c1cnn(C(C)C)c1
quantity_kind: IC50
quantitative_readout: 1430
//
line_notation: CC(C)n1cc(-c2nc(Nc3ccc4c(c3)CCN(CCCCCO)C4)ncc2F)cn1
quantity_kind: IC50
quantitative_readout: 420
//
line_notation: CC#CCN1CCc2cc(Nc3ncc(C)c(-c4cnn(C(C)C)c4)n3)ccc2C1
quantity_kind: IC50
quantitative_readout: 908
//
line_notation: COC(=O)/C=C/CN1CCc2cc(Nc3ncc(C)c(-c4cnn(C(C)C)c4)n3)ccc2C1
quantity_kind: IC50
quantitative_readout: 10
//
line_notation: Cc1ccc(C(=O)/C=C/C(=O)N2CCc3cc(Nc4ncc(C)c(-c5cnn(C(C)C)c5)n4)ccc3C2)cc1
quantity_kind: IC50
quantitative_readout: 13
